# measurement_target: GRK2 (Homo sapiens)
# Construct: purchased SignalChem A14-10G
# test_summary: ADPGlo GRK2 Inhibition Assay (Example 8)
# Assay type: biochemical
# condition_set: Enzyme Assay A, ADPGlo (Example 8); read-out: A: Enzymatic GRK2: IC50 (nM) (Example 8)
Please respond with yes (1) when measured IC50 is strictly beneath 30 nM, and with no (0) in all other cases.

Determine whether this molecule shows IC50 lower than 30 nM (ties excluded): O=C(NCc1ccncc1)c1cccc(NCc2nnc(-c3ccncc3)[nH]2)c1
yes (1)

API: query returns whether the molecule falls strictly under 30 nM in IC50. Query: Cc1noc(C)c1CNC(=O)c1cccc(NCc2nnc(-c3ccncn3)n2C)c1
yes (1)

Answer whether the molecule Cn1c(CNc2cccc(C(=O)NCc3ccc(-n4nccn4)cc3)c2)nnc1-c1ccncn1 [drawing 601] has IC50 strictly less than 30 nM
yes (1)

IC50 strictly < 30 nM for this molecule? Cn1c(CNc2cccc(C(=O)NCc3ccncc3C(F)(F)F)c2)nnc1-c1ccncn1
no (0)

In the record for Cn1c(CNc2cccc(C(=O)NCc3ccccc3CN3CCCC3=O)c2)nnc1-c1ccncn1 , is IC50 less than 30 nM?
no (0)

###

# measurement_target: GRK2 (Homo sapiens)
# Construct: purchased SignalChem A14-10G
# Sequence (P25098 1-689): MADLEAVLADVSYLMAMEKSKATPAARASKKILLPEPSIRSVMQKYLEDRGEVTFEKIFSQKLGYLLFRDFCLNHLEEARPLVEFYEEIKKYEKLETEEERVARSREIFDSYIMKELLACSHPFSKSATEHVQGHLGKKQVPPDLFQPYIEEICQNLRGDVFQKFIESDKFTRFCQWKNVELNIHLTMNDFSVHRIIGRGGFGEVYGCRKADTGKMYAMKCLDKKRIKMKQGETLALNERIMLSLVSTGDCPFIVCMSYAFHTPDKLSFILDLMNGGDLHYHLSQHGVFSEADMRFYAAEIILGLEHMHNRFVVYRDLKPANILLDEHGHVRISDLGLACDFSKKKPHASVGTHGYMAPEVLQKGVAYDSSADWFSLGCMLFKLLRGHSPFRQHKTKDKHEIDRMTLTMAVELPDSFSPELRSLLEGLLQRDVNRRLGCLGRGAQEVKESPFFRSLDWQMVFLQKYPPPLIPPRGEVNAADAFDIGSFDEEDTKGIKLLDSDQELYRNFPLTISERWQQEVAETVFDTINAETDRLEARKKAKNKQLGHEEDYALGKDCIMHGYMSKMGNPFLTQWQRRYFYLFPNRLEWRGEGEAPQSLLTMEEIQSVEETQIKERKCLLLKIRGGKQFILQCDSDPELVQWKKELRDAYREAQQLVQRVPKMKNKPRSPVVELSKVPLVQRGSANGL
# test_summary: ADPGlo GRK2 Inhibition Assay (Example 8)
# Format: biochemical
# condition_set: Enzyme Assay A, ADPGlo (Example 8); read-out: A: Enzymatic GRK2: IC50 (nM) (Example 8)
Classification scheme (IC50): bin A: < 20 nM; bin B: ≥ 20 nM and < 40 nM; bin C: ≥ 40 nM

Which of the defined bands does the recorded IC50 of O=C(N[C@H]1COc2cc(F)ccc21)c1cccc(NCc2nnc(-c3ccncn3)n2CCO)c1 sit within?
bin A

Entry Cc1cc(CNC(=O)c2cccc(NCc3nnc(-c4ccncn4)n3C)c2)no1 belongs to which category?
bin C

Hi there! Could you help me figure out the category for O=C(NCc1cncc(F)c1)c1cccc(NCc2nnc(-c3ccncc3)[nH]2)c1 please?
bin A

For the record COc1cccnc1CNC(=O)c1cccc(NCc2nnc(-c3ccncn3)n2C)c1 , report the class its IC50 corresponds to.
bin C

Just checking, what class would you give Cn1c(CNc2cccc(C(=O)NC(CO)c3ccccc3F)c2)nnc1-c1ccncn1 (centres unmarked) here?
bin C

Could you place Cc1ncccc1CNC(=O)c1cccc(NCc2nnc(-c3ccncc3)[nH]2)c1 in its proper category? Many thanks.
bin A

Class label required: CCOc1ccc(C(CO)NC(=O)c2cccc(NCc3nnc(-c4ccncn4)n3C)c2)cn1 (centres unmarked) [drawing 577]
bin A

Field: class (IC50) — entry: Cn1c(CNc2cccc(C(=O)NCc3nccc(Cl)c3F)c2)nnc1-c1ccncn1
bin C

Just checking, what class would you give Cn1cccc1CNC(=O)c1cccc(NCc2nnc(-c3ccncn3)n2C)c1 [drawing 585] here?
bin A

For the record Cn1c(CNc2cccc(C(=O)NC3(c4ccccc4)CC3)c2)nnc1-c1ccncn1 , report the class its IC50 corresponds to.
bin B

Which class does Cn1ccnc1C(NC(=O)c1cccc(NCc2nnc(-c3ccncc3)[nH]2)c1)C1CC1 (centres unmarked) [drawing 485] fall in?
bin A

State the class of the compound shown: CCn1nc(C)c(CNC(=O)c2cccc(NCc3nnc(-c4ccncc4)[nH]3)c2)n1
bin A

Lab log: Cn1c(CNc2cccc(C(=O)N[C@H]3COc4cc(F)ccc43)c2)nnc1-c1ccncc1F — assign IC50 category
bin C

Categorize the following entry: Cn1c(CNc2cccc(C(=O)NCc3cnccn3)c2)nnc1-c1ccncn1
bin B

Given CC(C)c1ocnc1CNC(=O)c1cccc(NCc2nnc(-c3ccncn3)n2C)c1 , name the class its IC50 places it in.
bin C

Classify this compound: Cc1ocnc1CNC(=O)c1cccc(NCc2nnc(-c3ccncc3)[nH]2)c1
bin A

// bin(item) where item = Cn1c(CNc2cccc(C(=O)NCc3ncnn3-c3ccccc3)c2)nnc1-c1ccncn1
bin C

For the record Cn1c(CNc2cccc(C(=O)NC(C)(C)c3ccncc3)c2)nnc1-c1ccncn1 , report the class its IC50 corresponds to.
bin C

Hi, small favor: classify Cc1cc(CNC(=O)c2cccc(NCc3nnc(-c4ccncn4)n3C)c2)c(C)n1-c1ccccc1 by its IC50 when you get a moment.
bin A

Tag the class for Cn1c(CNc2cccc(C(=O)N[C@@H]3COc4cc(F)ccc43)c2)nnc1-c1ccncc1F
bin B

Hi, small favor: classify Cc1csc(C2(NC(=O)c3cccc(NCc4nnc(-c5ccncn5)n4C)c3)CCC2)n1 by its IC50 when you get a moment.
bin C

Class for O=C(N[C@H]1COCc2ccccc21)c1cccc(NCc2nnc(-c3ccncn3)n2CCO)c1 ?
bin B

The entry to classify is Cc1cccnc1CNC(=O)c1cccc(NCc2nnc(-c3ccncn3)n2C)c1 [drawing 264] ; which class holds it?
bin A

For this compound, which bin applies? Cc1cc(CNC(=O)c2cccc(NCc3nnc(-c4ccncn4)n3C)c2)n(C)n1
bin A

Which IC50 band matches Cn1c(CNc2cccc(C(=O)NC(CO)c3ccc(F)cc3)c2)nnc1-c1ccncn1 (centres unmarked) ?
bin A

Could you tell me which band C[C@H](NC(=O)c1cccc(NCc2nnc(-c3ccncn3)n2CCO)c1)c1ncccc1Cl belongs to?
bin A

Which IC50 band matches Cn1c(CNc2cccc(C(=O)N[C@@H](CO)c3cc(F)ccc3F)c2)nnc1-c1ccncn1 ?
bin A

Given Cc1cnc(CNC(=O)c2cccc(NCc3nnc(-c4ccncn4)n3C)c2)cn1 , name the class its IC50 places it in.
bin C

Categorize the following entry: CNS(=O)(=O)c1cccc(F)c1CNC(=O)c1cccc(NCc2nnc(-c3ccncc3)[nH]2)c1
bin A

Please report the category associated with Cn1c(CNc2cccc(C(=O)NC3COc4cccc(F)c43)c2)nnc1-c1ccncn1 (centres unmarked) , nothing else.
bin A

Band assignment needed for O=C(NCc1cncnc1)c1cccc(NCc2nnc(-c3ccncc3)[nH]2)c1 please.
bin B

The entry to classify is Cn1c(CNc2cccc(C(=O)N[C@H]3COCc4c(Cl)cccc43)c2)nnc1-c1ccncc1F ; which class holds it?
bin B

Band for the recorded IC50 of COc1cccc2c1CCC2NC(=O)c1cccc(NCc2nnc(-c3ccncn3)n2C)c1 (centres unmarked) ?
bin A

Which bin, given its IC50, does Cc1cnc(CNC(=O)c2cccc(NCc3nnc(-c4ccncn4)n3C)c2)nc1 occupy?
bin C

Class? Entry: C#COc1cccc(OS(=O)(=O)F)c1CNC(=O)c1cccc(NCc2nnc(-c3ccncc3)[nH]2)c1
bin A
